Test system: Scedosporium apiospermum
Assay: Antifungal activity in vitro, resazurin growth inhibition screen: Scedosporium apiospermum
Assay type: cell-based
Conditions: Scedosporium apiospermum IHEM3817
For each of the compounds below, state its Inf. H pIC50.
Form field (numeric): enter value without unit.

Problem: // returns reported Inf. H pIC50 for input Clc1cc(Cl)c2c(c1)CN=C(c1ccc3c(c1)CCO3)c1cccn1-2
Solution: 4.94

Problem: Tell me the measured Inf. H pIC50 of Fc1cc(F)c2c(c1)-n1cccc1C(c1ccc3c(c1)OC(F)(F)O3)=NC2 , please.
Solution: 4.19

Problem: So what does the record say about Inf. H pIC50 for Cl.O=C1CCc2cc(C3NCc4c(Cl)cccc4-n4cccc43)ccc21 (stereo not drawn) ?
Solution: 4.67

Problem: Quick one: Inf. H pIC50 of Fc1cccc2c1CN=C(c1ccc3c(c1)CCOC3)c1cccn1-2 ?
Solution: 5.40

Problem: Form field: reported Inf. H pIC50 of FC1(F)Oc2ccc(C3=NCc4c(Cl)cc(Cl)cc4-n4cccc43)cc2O1
Solution: 5.72

Problem: Entry under review: FC1(F)Oc2ccc(C3=NCc4cccc(Cl)c4-n4cccc43)cc2O1 . Reported Inf. H pIC50?
Solution: 5.13

Problem: Data request, read-out Inf. H pIC50, for Cl.Clc1cccc2c1CNC(c1ccc3c(c1)CCOC3)c1cccn1-2 (stereo not drawn)
Solution: 4.97

Problem: Given Br.Clc1cccc2c1CNC(c1ccc3c(c1)CCC3)c1cccn1-2 (stereo not drawn) , state its recorded Inf. H pIC50.
Solution: 4.52

Problem: Query (compound): Clc1cccc2c1CN=C(c1ccc3c(c1)CCOC3)c1cccn1-2 ; field requested: Inf. H pIC50
Solution: 4.48

Problem: Returns the measured Inf. H pIC50 for the input compound. Input: FC1(F)Oc2ccc(C3=NCc4c(Cl)cccc4-n4cccc43)cc2O1
Solution: 5.5

Problem: Return reported Inf. H pIC50; argument: CN1CCc2cc(C3=NCc4c(Cl)cccc4-n4cccc43)ccc21
Solution: 4.76

====

Would you kindly list IC50 for each of these molecules?
System: Aspergillus fumigatus
Test: Antifungal activity in vitro, resazurin growth inhibition screen: Aspergillus fumigatus
Format: cell-based
Details: Aspergillus fumigatus B42928; read-out: Inf. E pIC50 (converted)
# value in nM; strip the unit string

Problem: Aspergillus fumigatus / IC50 / FC1(F)CCc2cc(C3=NCc4ccc(Cl)cc4-n4cccc43)ccc2O1 : value?
Solution: 219

Problem: Checklist item: IC50 tested on Aspergillus fumigatus, entry CN1C(=O)C(C)(C)c2cc(C3=NCc4c(Cl)cccc4-n4cccc43)ccc21 , value?
Solution: 2240

Problem: Hi! What's the reported IC50 for Clc1cc(Cl)c2c(c1)-n1cccc1C(c1ccc3c(c1)CCO3)=NC2 on Aspergillus fumigatus?
Solution: 1000

Problem: Which IC50 is reported with Aspergillus fumigatus for this entry: Clc1cccc2c1CN=C(c1ccc3c(c1)CCO3)c1cccn1-2 ?
Solution: 2000

Problem: Enter reported IC50 observed with Aspergillus fumigatus for FC1(F)CCc2cc(C3=NCc4cccc(Cl)c4-n4cccc43)ccc2O1
Solution: 617

Problem: Write down the reported IC50 of Fc1cc(Cl)c2c(c1)-n1cccc1C(c1ccc3c(c1)CCC3(F)F)=NC2 , test system: Aspergillus fumigatus.
Solution: 417

Problem: Short answer please: IC50, Aspergillus fumigatus, entry Clc1cccc2c1CN=C(c1ccc3c(c1)OCC3)c1cccn1-2
Solution: 2000

Problem: # returns recorded IC50 (system: Aspergillus fumigatus) for Clc1cccc2c1CN=C(c1ccc3c(c1)CCCC3)c1cccn1-2
Solution: 46.8

Problem: Test system Aspergillus fumigatus; read-out IC50; what value for O=C1CCCc2cc(C3=NCc4c(F)cccc4-n4cccc43)ccc21 ?
Solution: 398

Problem: Record O=C1CCc2cc(C3=NCc4c(Cl)cccc4-n4cccc43)ccc21 : what is its IC50 with Aspergillus fumigatus?
Solution: 363

Problem: Any idea what IC50 came out for Clc1cccc2c1-n1cccc1C(c1ccc3c(c1)CCCO3)=NC2 on Aspergillus fumigatus?
Solution: 141

Problem: Find IC50 (Aspergillus fumigatus) for the entry Clc1cc(Cl)c2c(c1)-n1cccc1C(c1ccc3c(c1)CCC3)=NC2
Solution: 912

Problem: Form entry - test system: Aspergillus fumigatus; read-out: IC50; molecule: Clc1cc(Cl)c2c(c1)CN=C(c1ccc3c(c1)CCC3)c1cccn1-2
Solution: 155

====

Test system: Sporothrix schenkii
Test: Antifungal activity in vitro, resazurin growth inhibition screen: Sporothrix schenkii
Type: cell-based
Details: Sporothrix schenkii B62482
observable: Inf. A pIC50

Problem: Item Cl.Fc1cccc2c1CNC(c1ccc3c(c1)CCOC3)c1cccn1-2 (centres unmarked) [Compound 29] has what recorded Inf. A pIC50?
Solution: <4.19

Problem: Please give the measured Inf. A pIC50 for this compound: Cl.Clc1ccc2c(c1Cl)CNC(c1ccc3c(c1)CCO3)c1cccn1-2 (centres unmarked) [Compound 30]
Solution: <4.19

Problem: Value lookup for Inf. A pIC50; key = Clc1cccc2c1-n1cccc1C(c1ccc3c(c1)CCOC3)=NC2 [Compound 82]
Solution: 5.06

Problem: What Inf. A pIC50 value was documented for this compound, Cl.O=C1CCc2cc(C3NCc4c(Cl)cccc4-n4cccc43)ccc21 (centres unmarked) [Compound 51] ?
Solution: 4.46

Problem: What Inf. A pIC50 value was documented for this compound, FC1(F)Oc2ccc(C3=NCc4c(Cl)cccc4-n4cccc43)cc2O1 [Compound 74] ?
Solution: <4.19

Problem: Data request, read-out Inf. A pIC50, for Br.c1ccc2c(c1)CNC(c1ccc3c(c1)OCO3)c1cccn1-2 (centres unmarked) [Compound 2]
Solution: <4.19

Problem: Look up Inf. A pIC50 for this compound: Br.Clc1cccc2c1CNC(c1ccc3c(c1)CCC3)c1cccn1-2 (centres unmarked) [Compound 13]
Solution: 5.15

Problem: GET /values?readout=Inf. A pIC50&item= Br.Clc1ccc2c(c1)CNC(c1ccc3c(c1)OCO3)c1cccn1-2 (centres unmarked) [Compound 5]
Solution: <4.19

====

Test system: Microsporum canis
Assay: Antifungal activity in vitro, resazurin growth inhibition screen: Microsporum canis
Format: cell-based
Conditions: Microsporum canis B68128
observable: Inf. B pIC50

Problem: Recorded Inf. B pIC50 of Clc1cc(Cl)c2c(c1)CN=C(c1ccc3c(c1)CCO3)c1cccn1-2 , please.
Solution: 6.30

Problem: Looking for the measured Inf. B pIC50 of Fc1cc(F)c2c(c1)-n1cccc1C(c1ccc3c(c1)CCCO3)=NC2 , can you help?
Solution: 4.48

Problem: Inf. B pIC50 lookup needed for Cl.Clc1ccc(Cl)c2c1CNC(c1ccc3c(c1)CCC3)c1cccn1-2 (stereo not drawn) , thanks.
Solution: 5.00

Problem: Form field: reported Inf. B pIC50 of FC1(F)Oc2ccc(C3=NCc4ccc(Cl)cc4-n4cccc43)cc2O1
Solution: 5.74

Problem: Field request: Inf. B pIC50 | item: Br.CCOc1cc2c(cc1C1NCc3c(Cl)cccc3-n3cccc31)OC(C)C2 (stereo not drawn)
Solution: 4.92

Problem: Item under review: Br.Clc1ccc2c(c1)CNC(c1ccc3c(c1)OCO3)c1cccn1-2 (stereo not drawn) . Reported Inf. B pIC50?
Solution: 5.11

Problem: Request the reported Inf. B pIC50 associated with Clc1cccc2c1CN=C(c1ccc3c(c1)CCOC3)c1cccn1-2
Solution: 6.62

Problem: State the recorded Inf. B pIC50 for this entry: Cl.Clc1cccc2c1CNC(c1ccc3c(c1)CCO3)c1cccn1-2 (stereo not drawn)
Solution: 6.00

Problem: Report Inf. B pIC50 for Cl.Clc1cc(Cl)c2c(c1)-n1cccc1C(c1ccc3c(c1)CCO3)NC2 (stereo not drawn) please.
Solution: 5.52

====

Consider the following compounds; for each one, report its Inf. B pIC50.
Tested on: Microsporum canis
Assay: Antifungal activity in vitro, resazurin growth inhibition screen: Microsporum canis
Type: cell-based
Conditions: Microsporum canis B68128
Give your answer as a number; write no unit.

Problem: What value of Inf. B pIC50 has been recorded for this entry: Fc1cc(F)c2c(c1)-n1cccc1C(c1ccc3c(c1)OC(F)(F)O3)=NC2 [Compound 78]
Solution: 6.26

Problem: Returns the measured Inf. B pIC50 for the input compound. Input: Fc1cccc2c1CN=C(c1ccc3c(c1)CCOC3)c1cccn1-2 [Compound 39]
Solution: 6.36

Problem: Quick one: Inf. B pIC50 for FC1(F)Oc2ccc(C3=NCc4cccc(Cl)c4-n4cccc43)cc2O1 [Compound 76] ?
Solution: 6.70

Problem: Given the entry Br.Clc1cccc2c1CNC(c1ccc3c(c1)CCC3)c1cccn1-2 (centres unmarked) [Compound 13] , report its measured Inf. B pIC50.
Solution: 6.36

Problem: Data request, read-out Inf. B pIC50, for CN1CCc2cc(C3=NCc4c(F)cccc4-n4cccc43)ccc21 [Compound 81]
Solution: 5.28

Problem: Please report the recorded Inf. B pIC50 for Clc1cccc2c1CNC(c1ccc3c(c1)OCO3)c1cccn1-2 (centres unmarked) [Compound 3] .
Solution: 4.91
